Assignment: determine reported KM for the given variants.
B1: glmS ribozyme (parent)
chain: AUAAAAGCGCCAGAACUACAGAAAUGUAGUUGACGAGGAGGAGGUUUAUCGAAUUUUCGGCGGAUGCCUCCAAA

# Variants of: B1
# ASSAY_EXPLANATION: KM; higher = weaker cofactor use; RNA array
# PARTICULARS: with glucosamine-6-phosphate
Give just the number in µM; leave the unit off.

Per the record, A12C G66U has KM of 1990

// sample G43U A52G , its KM was 5960

For G37C A39U the variant record lists KM as 1230

# variant A15G G66U ; its KM = 5370

Record C16G G32U . Reported KM: 3800

Entry G32U U54C — recorded KM = 5300

KM recorded for this variant, U46A U69C , is 1590

According to the records, this variant G29C U56G displays KM of 6770

Lookup result for G29A U55A ; measured KM: 1320

For reference, reported KM for A14U U65A stands at 4460

Briefly, KM measured for A15G C16A C70U : 804

Measured KM of A14C C16G : 438

# variant U46G U47G ; its KM = 1530

# KM of U65C C71A = 481

KM measured on U45A A48C = 2130

// recorded KM for A39G A48U : 5000

Short answer for U30C G66C : KM was 347

Entry C11A U31G , KM reported as 3900

The variant A48C A53C showed KM equal to 4010

Given item A12C U46G , the value recorded as its KM is 1950

Sure, the documented KM for A12C A39G is 2230

The recorded KM for A6U A23C U30G is 2780

variant A36C C61U , KM observed: 44.5

Noted for A42G G66A U69A : its KM reads 1590

KM recorded for this variant, U30G U56A , is 2730

The variant U30A A64G showed KM equal to 1670

For record G40C C70A the listed KM is 516

Looking up A15C U55C , I see its KM listed as 2200

Quick note, KM for A14G G43U U46G landed at 1610

// sample U31A U45G , its KM was 1730

For A14C A64G the variant record lists KM as 884

In plain terms, A33U A42G has a documented KM of 2000

// sample U54C G66U , its KM was 3380

The reported value for A15C G29U in terms of KM is 2200

Recorded result, C16A G29A , KM: 1790

Per the records, this variant ( G40U U47G ) has KM equal to 908

Query G40A U56A yields KM of 3080

Data point: A12U C16A ; KM = 2210

The recorded KM for entry A15C U47G equals 1270

// sample A12G , its KM was 4240

Per the records, this variant ( U65A C70G ) has KM equal to 66.3

Per the records, this variant ( U46A U56C ) has KM equal to 1350

response.value for U47C A48U (field: KM) = 1270

Record summary for A53U U54C : reported KM = 619

The variant identified as U31C G66U registered its KM at 4610

Looking up G35U C50A , I found its KM recorded as 1970

// recorded KM for G40A G44C : 2680

For record G44C A52G the listed KM is 279

Reported KM of U56G C70G : 61.4

Value of measured KM for the entry G59A G60C : 30.9

Lab book: KM of A48U U55A noted as 1310

// U30G G40U : KM value = 1610

What the record says about A53U C67A : KM is 785

Documented KM of A33U C71A : 919

// KM value for G60A A64G : 1390

# KM (variant: C16G ) is 2880

Notebook: C16G U47A , KM read as 1710

Form: variant = A48U A53U ; KM = 1960

Entry G29U U47G ; KM = 1600

For record C16G G40C the listed KM is 1660

Documented KM of A53U G66C : 1980

Form field KM, entry C16G G41U : 2720

The reported value for U54C U69A in terms of KM is 82

Just so you know, measured KM for A12U U47G U57C came out at 8650

The reported KM of the variant A12C C70U C71U was 1270

Record summary for A39U A64C : reported KM = 3410

For reference, reported KM for U30A U46C stands at 1730

The reported KM of the variant U45G C71A was 1750

The reported value for G29C U31C in terms of KM is 3280

What the record says about A14G A36G : KM is 854
